assay: ATG_AP_2_CIS: Attagene CIS-FACTORIAL HepG2 Assay for human Activator Protein 2 (AP-2) (AID 2282932); details: HepG2 AP-2 cis-reporter, Attagene transcription factor profiling; actives raise or lower the signal
Active and inactive are the calls of the source. Rule for the calls: active = hit-call score of the fitted dose curve at least 0.9, where 1 is the maximum; inactive = score below 0.9.

COMPOUND_STRUCTURE_STRING: CCCCCOC(=O)COc1cc(N2C(=O)C3=C(CCCC3)C2=O)c(F)cc1Cl
outcome: inactive
//
COMPOUND_STRUCTURE_STRING: COC(=O)c1ccc(CNS(C)(=O)=O)cc1S(=O)(=O)NC(=O)Nc1nc(OC)cc(OC)n1
outcome: inactive
//
COMPOUND_STRUCTURE_STRING: CCSC(=O)N(CC(C)C)CC(C)C
outcome: inactive
